# key: entry, value: cytotoxicity at 70.5 h
# measurement description: Human HepG2 cell viability assay in 384 well format
# Type: toxicity, cell-based
# Set-up: dose 125 nL, time 70.5 hour; concentration not given beside the values
# assay conditions: HepG2 cells, read-out: Inhibition
A number alone suffices; assume %.

Record excerpt, results attached:
molecule | quantitative result
CCNC(=O)CN(CC)C(=O)c1csc(Cc2ccccc2F)n1 | -13.1
COCC(=O)N1CCCN(c2ncnc3c2CCNCC3)CC1 | -5.03
Cc1cc(CNC(=O)Nc2cccc(COCCOC(C)C)c2)no1 | -0.772
Cc1cc(C(=O)N2CCCCC2)ccc1NS(C)(=O)=O | -8.47
NC(=O)c1cnn2c1NCC(CNCCc1ccco1)C2 (configuration not stated) | -1.07

The molecule listed as COCCN1CCC2(CCCN(Cc3ccoc3)C2)C1=O (configuration not stated) shows cytotoxicity at 70.5 h equal to 12.2

The molecule listed as CN1Cc2cnn(CC3CCCC3)c2C(COCC2CC2)C1 (configuration not stated) shows cytotoxicity at 70.5 h equal to -1.16

The molecule listed as Cc1cccc(Cn2c3c(ccc2=O)CCN(Cc2ccoc2)CC3)n1 shows cytotoxicity at 70.5 h equal to -9.52

The molecule listed as CC(C)(C)n1c(NC(=O)CNC(=O)NC2CC2)nc2ccccc21 shows cytotoxicity at 70.5 h equal to 1.24

The molecule listed as Cc1ccc(NC(=O)N2CCOC(C)C2)cc1Cl (configuration not stated) shows cytotoxicity at 70.5 h equal to -7.15

The molecule listed as CN(Cc1csc(-c2ccccc2)n1)Cc1ncccc1C(=O)O shows cytotoxicity at 70.5 h equal to 11.5

The molecule listed as Cc1cnn(CCC(=O)N2CCC(Nc3cccnn3)CC2)c1 shows cytotoxicity at 70.5 h equal to 18.3

====

# measurement description: Human HepG2 cell viability assay in 384 well format
# Format: toxicity, cell-based
# Parameters: dose 125 nL, time 70.5 hour; concentration not given beside the values
# assay conditions: HepG2 cells, read-out: Inhibition
readout name: cytotoxicity at 70.5 h (%)
A number alone suffices; assume %.

molecule | readout name | quantitative result
CSc1ccccc1C(=O)NCc1cc2n(n1)CCCN(CC(C)C)C2 | cytotoxicity at 70.5 h | 22.5

The molecule listed as Cn1cnc2c1CCN(CC(=O)N(Cc1ccsc1)C1CC1)C2 shows cytotoxicity at 70.5 h equal to 0.271

The molecule listed as Cc1nccc(N(C)Cc2ncc(-c3ccccc3C(=O)O)s2)n1 shows cytotoxicity at 70.5 h equal to -1.97

The molecule listed as CCc1ncc2c(n1)CN(Cc1cc(C)on1)CC2 shows cytotoxicity at 70.5 h equal to -106

The molecule listed as Cc1nn(C)c2c(=O)n(C)c(NCC3CCCO3)nc12 (stereo not drawn) shows cytotoxicity at 70.5 h equal to -3.29

The molecule listed as O=C1C(Nc2ncccn2)CCN1c1ccccc1OC(F)F (stereo not drawn) shows cytotoxicity at 70.5 h equal to 1.42

====

# measurement description: Human HepG2 cell viability assay in 384 well format
# Assay type: toxicity, cell-based
# Design: dose 125 nL, time 70.5 hour; concentration not given beside the values
# assay conditions: HepG2 cells, read-out: Inhibition
readout name: cytotoxicity at 70.5 h (%)
A number alone suffices; assume %.

Record excerpt, results attached:
compound | quantitative result
COc1ccccc1-c1cccc(C2CCCN(C3CCOCC3)C2)n1 (centres undefined) | 22.7
Cn1nc(C2CCCN2)c2c(C(=O)NCC(F)(F)F)cc(C3CC3)nc21 (centres undefined) | 17.1
CCc1ncncc1C(=O)NCCNc1ncnc2sccc12 | -21.7
CC(C)NC(=O)N1CCC2(CC(=O)N(c3ccccc3)C2)C1 (centres undefined) | 17.9
CC(C)c1nnc2n1CCN(Cc1nc(-c3ccoc3)no1)C2 | 16.7
Cc1nc(C)n(C2CCCN(C(=O)c3cccnc3NC(C)C)C2)n1 (centres undefined) | -9.03
Cc1cc(CNc2ccc(CC(=O)N(C)c3ccccc3)cc2)no1 | 0.0494
Cc1nc(C2CCCN2C(=O)Cc2cccc(F)c2)nc(O)c1C (centres undefined) | 21.4
CC(=O)N(Cc1noc(C)n1)C1CCN(Cc2ccccn2)C1 (centres undefined) | -8.37
CN(C)C1CCN(C(=O)c2cc3c(s2)CCN3C(=O)C2CC2)CC1 | -2.71

The compound listed as O=C(c1ncccn1)N1CCC[C@]2(C[C@@H](OCC3CC3)CO2)C1 shows cytotoxicity at 70.5 h equal to -16.4

The compound listed as Cc1csc(-c2cccc(NC(=O)N3CCOCC3)c2)n1 shows cytotoxicity at 70.5 h equal to -3.32

The compound listed as COCCN(C)CCN1CC2(CCN(C(=O)C3CCOC3)CC2)OC1=O (centres undefined) shows cytotoxicity at 70.5 h equal to 17.4

The compound listed as O=C(NCc1csc(Br)c1)c1ccncc1 shows cytotoxicity at 70.5 h equal to -16.8

The compound listed as c1cnn(CC2CCCCN2Cc2nc(-c3ccsc3)no2)c1 (centres undefined) shows cytotoxicity at 70.5 h equal to -4.27

The compound listed as CN(Cc1ccc(C2CC(=O)Nc3n[nH]cc32)o1)S(C)(=O)=O (centres undefined) shows cytotoxicity at 70.5 h equal to 9.86

====

# measurement description: Human HepG2 cell viability assay in 384 well format
# Type: toxicity, cell-based
# Set-up: dose 125 nL, time 70.5 hour; concentration not given beside the values
# assay conditions: HepG2 cells, read-out: Inhibition
# key: entry, value: cytotoxicity at 70.5 h
A number alone suffices; assume %.

Record excerpt, results attached:
compound | readout name | quantity unit | quantitative result
CCc1nn(C)c(Cl)c1CN1CCCC(c2cc(O)nc(C)n2)C1 (stereo not drawn) | cytotoxicity at 70.5 h | % | -0.921
c1cnn(CC2CCCCN2Cc2noc(C3CC3)n2)c1 (stereo not drawn) | cytotoxicity at 70.5 h | % | -6.47
Cc1c[nH]c(CN(C)C(C(=O)O)c2c(F)cccc2Cl)n1 (stereo not drawn) | cytotoxicity at 70.5 h | % | 1.26
CC(C)CN1CCS(=O)(=O)[C@@H]2CCN(S(=O)(=O)N(C)C)CC[C@@H]21 | cytotoxicity at 70.5 h | % | -5.76
COc1cnc(N2CCCC(c3ncc[nH]3)C2)nc1 (stereo not drawn) | cytotoxicity at 70.5 h | % | -3.19
CCN(CC1CCOC1)C(=O)Nc1ccc(-n2cncn2)nc1 (stereo not drawn) | cytotoxicity at 70.5 h | % | -9.69
CN(C)C1(CNC(=O)C/C=C/c2ccc(F)cc2)CCOCC1 | cytotoxicity at 70.5 h | % | 22.9
CCCNC(=O)COc1cc(C)c2c(C)nn(-c3ccc(C)cc3)c2n1 | cytotoxicity at 70.5 h | % | -2.23
Cc1ccc(C(=O)N(C)CC(=O)N2CCCC2)c(C)c1 | cytotoxicity at 70.5 h | % | -16
O=C(Nc1ccccc1Cn1cncn1)C1CCN(C2CCCCC2)C1 (stereo not drawn) | cytotoxicity at 70.5 h | % | -5.06

The compound listed as COCCCN1CCN(CC2CCCO2)CC1 (stereo not drawn) shows cytotoxicity at 70.5 h equal to 22.5

The compound listed as CO[C@H]1C[C@@H]2CN(C(=O)Cc3ccc(C)s3)C[C@@H]2C1 shows cytotoxicity at 70.5 h equal to -2.91

The compound listed as Cc1ccccc1C1(CNC(=O)c2cccc(S(C)(=O)=O)c2)CC1 shows cytotoxicity at 70.5 h equal to 20.2

The compound listed as Cn1cc(-c2ncc(C(=O)NCCCn3ccccc3=O)s2)cn1 shows cytotoxicity at 70.5 h equal to -10.1

The compound listed as O=C(NCC1(CO)CC1)c1ccccc1F shows cytotoxicity at 70.5 h equal to -8.21

The compound listed as FC(F)(F)Cn1cc(NCc2cscn2)cn1 shows cytotoxicity at 70.5 h equal to -5.23

The compound listed as CC(Nc1c(F)cc(C#N)cc1F)c1cccc(S(N)(=O)=O)c1 (stereo not drawn) shows cytotoxicity at 70.5 h equal to -9.34

The compound listed as CC(C)OCc1ccccc1CNC(=O)C(C)S(=O)(=O)C(C)C (stereo not drawn) shows cytotoxicity at 70.5 h equal to -5.26

The compound listed as NC(=O)C1CN(C(=O)C2(c3ccc(F)cc3F)CCCC2)CCO1 (stereo not drawn) shows cytotoxicity at 70.5 h equal to -1.48

The compound listed as COCC1CN(Cc2ccc3c(c2)OCO3)Cc2ncn(C)c21 (stereo not drawn) shows cytotoxicity at 70.5 h equal to -12.8

The compound listed as O=C(c1ccc2[nH]ccc2c1)N1CCn2cnc(COCC3CC3)c2C1 shows cytotoxicity at 70.5 h equal to -4.35

The compound listed as COc1cccc(CCNC(=O)NC(C)C)c1O shows cytotoxicity at 70.5 h equal to 9.97

The compound listed as Cc1cccc(-c2nc(CN3CCc4cncnc4C3)no2)c1 shows cytotoxicity at 70.5 h equal to -4.67

The compound listed as COc1ccc(OC)c2c(C)cc(N(C)Cc3cc(C)on3)nc12 shows cytotoxicity at 70.5 h equal to 23.1

The compound listed as CC1c2ncc(CNC(=O)C3CC3)n2CCN1Cc1ccccn1 (stereo not drawn) shows cytotoxicity at 70.5 h equal to 0.0373

The compound listed as CN(C)Cc1ccnc(C2CCCN2Cc2ccc(F)cn2)n1 (stereo not drawn) shows cytotoxicity at 70.5 h equal to 17.2

The compound listed as O=C(CSc1ccc2c(c1)OCCO2)NS(=O)(=O)c1ccccc1Cl shows cytotoxicity at 70.5 h equal to -4.64
